The measured values listed here are drawn from PubChem BioAssay (NCI).

- Test system: RPMI-8226 leukemia
- test.details: NCI tumour cell line growth inhibition, 48 h
# reported TGI; entries follow
observable: TGI

compound=O=C(OCc1ccc2ccccc2n1)c1cn(C2CC2)c2cc(N3CCN(Cc4ccc5ccccc5n4)CC3)c(F)cc2c1=O observable=TGI recorded_result="> 64.2 µM"
compound=Fc1ccc(/C=N/n2c(-c3ccc(F)c(Cl)c3)nn(CNc3ccccc3C(F)(F)F)c2=S)cc1 observable=TGI recorded_result="> 100 µM"
compound="CCOC(=O)C1C(=S)NC(=O)C1C#N (stereo not given)" observable=TGI recorded_result="> 100 µM"
compound=Cc1cc(C)c(-n2[nH]c(=O)n(C)c2=O)c(C)c1 observable=TGI recorded_result="> 100 µM"
compound="C=CCC1(OCc2ccccc2)C(=O)C(=O)OC1C1COC(C)(C)O1 (stereo not given)" observable=TGI recorded_result="> 100 µM"
